target: recombinant H5N1 VN/04 HA trimer (hemagglutinin ectodomain of A/Vietnam/1203/2004) (influenza A virus A/Vietnam/1203/2004 (H5N1)); experiment: ELISA, coated HA
Assay Endpoint: EC50

Take a look at these entries with their results.
S11 (antibody, V domains shown) VH: EVQLVESGGGLVQPGGSLRLSCAASGFTIDNGGIHWVRQAPGKGLEWVAWIGPYGGSTSYADSVKGRFTISADTSKNTAYLQMNSLRAEDTAVYYCARFGFGLHDLMDYWGQGTLVTVSS VL: DIQMTQSPSSLSASVGDRVTITCRASQDVYSWVAWYQQKPGKAPKLLIYYSSFLYSGVPSRFSGSGSGTDFTLTISSLQPEDFATYYCQQYYNGPLTFGQGTKVEIKR
0.0781 µg/mL
P03 (antibody, V domains shown) VH: EVQLVESGGGLVQPGGSLRLSCAASGFTIDSFGIHWVRQAPGKGLEWVAFIGPFGGSTFYADSVKGRFTISADTSKNTAYLQMNSLRAEDTAVYYCARFDSNSYSYHGIMDYWGQGTLVTVSS VL: DIQMTQSPSSLSASVGDRVTITCRASQDVWGYVAWYQQKPGKAPKLLISWSGSLYSGVPSRFSGSGSGTDFTLTISSLQPEDFATYYCQQYYNWPVTFGQGTKVEIKR
> 10 µg/mL
Do1 (antibody, V domains shown) VH: EVQLVESGGGLVQPGGSLRLSCAASGFTIDNGSIHWVRQAPGKGLEWVAWIGPYGGFTSYADSVKGRFTISADTSKNTAYLQMNSLRAEDTAVYYCARFYGSGSSSFMDYWGQGTLVTVSS VL: DIQMTQSPSSLSASVGDRVTITCRASQDVWGGVAWYQQKPGKAPKLLIFFSRYLYSGVPSRFSGSGSGTDFTLTISSLQPEDFATYYCQQYYNGPLTFGQGTKVEIKR
> 10 µg/mL

What value of measured EC50 is listed for S45 (antibody, V domains shown) VH: EVQLVESGGGLVQPGGSLRLSCAASGFTINGSSIHWVRQAPGKGLEWVAYIGPFGGSTYYADSVKGRFTISADTSKNTAYLQMNSLRAEDTAVYYCARFWHGYNLYMDYWGQGTLVTVSS VL: DIQMTQSPSSLSASVGDRVTITCRASQDVGWWVAWYQQKPGKAPKLLIYGARFLYSGVPSRFSGSGSGTDFTLTISSLQPEDFATYYCQQYFNGPLTFGQGTKVEIKR ?
0.23 µg/mL

src = patent US20210070843A1
